Value source: patent US8557783B2

Biological target: Cation-Independent Mannose 6-Phosphate Receptor (sCI-MPR) (Bos taurus, UniProt P08169)
Construct: Samples of purified sCI-MPR purified from fetal calf serum
Sequence (P08169 45-2313 limits assumed): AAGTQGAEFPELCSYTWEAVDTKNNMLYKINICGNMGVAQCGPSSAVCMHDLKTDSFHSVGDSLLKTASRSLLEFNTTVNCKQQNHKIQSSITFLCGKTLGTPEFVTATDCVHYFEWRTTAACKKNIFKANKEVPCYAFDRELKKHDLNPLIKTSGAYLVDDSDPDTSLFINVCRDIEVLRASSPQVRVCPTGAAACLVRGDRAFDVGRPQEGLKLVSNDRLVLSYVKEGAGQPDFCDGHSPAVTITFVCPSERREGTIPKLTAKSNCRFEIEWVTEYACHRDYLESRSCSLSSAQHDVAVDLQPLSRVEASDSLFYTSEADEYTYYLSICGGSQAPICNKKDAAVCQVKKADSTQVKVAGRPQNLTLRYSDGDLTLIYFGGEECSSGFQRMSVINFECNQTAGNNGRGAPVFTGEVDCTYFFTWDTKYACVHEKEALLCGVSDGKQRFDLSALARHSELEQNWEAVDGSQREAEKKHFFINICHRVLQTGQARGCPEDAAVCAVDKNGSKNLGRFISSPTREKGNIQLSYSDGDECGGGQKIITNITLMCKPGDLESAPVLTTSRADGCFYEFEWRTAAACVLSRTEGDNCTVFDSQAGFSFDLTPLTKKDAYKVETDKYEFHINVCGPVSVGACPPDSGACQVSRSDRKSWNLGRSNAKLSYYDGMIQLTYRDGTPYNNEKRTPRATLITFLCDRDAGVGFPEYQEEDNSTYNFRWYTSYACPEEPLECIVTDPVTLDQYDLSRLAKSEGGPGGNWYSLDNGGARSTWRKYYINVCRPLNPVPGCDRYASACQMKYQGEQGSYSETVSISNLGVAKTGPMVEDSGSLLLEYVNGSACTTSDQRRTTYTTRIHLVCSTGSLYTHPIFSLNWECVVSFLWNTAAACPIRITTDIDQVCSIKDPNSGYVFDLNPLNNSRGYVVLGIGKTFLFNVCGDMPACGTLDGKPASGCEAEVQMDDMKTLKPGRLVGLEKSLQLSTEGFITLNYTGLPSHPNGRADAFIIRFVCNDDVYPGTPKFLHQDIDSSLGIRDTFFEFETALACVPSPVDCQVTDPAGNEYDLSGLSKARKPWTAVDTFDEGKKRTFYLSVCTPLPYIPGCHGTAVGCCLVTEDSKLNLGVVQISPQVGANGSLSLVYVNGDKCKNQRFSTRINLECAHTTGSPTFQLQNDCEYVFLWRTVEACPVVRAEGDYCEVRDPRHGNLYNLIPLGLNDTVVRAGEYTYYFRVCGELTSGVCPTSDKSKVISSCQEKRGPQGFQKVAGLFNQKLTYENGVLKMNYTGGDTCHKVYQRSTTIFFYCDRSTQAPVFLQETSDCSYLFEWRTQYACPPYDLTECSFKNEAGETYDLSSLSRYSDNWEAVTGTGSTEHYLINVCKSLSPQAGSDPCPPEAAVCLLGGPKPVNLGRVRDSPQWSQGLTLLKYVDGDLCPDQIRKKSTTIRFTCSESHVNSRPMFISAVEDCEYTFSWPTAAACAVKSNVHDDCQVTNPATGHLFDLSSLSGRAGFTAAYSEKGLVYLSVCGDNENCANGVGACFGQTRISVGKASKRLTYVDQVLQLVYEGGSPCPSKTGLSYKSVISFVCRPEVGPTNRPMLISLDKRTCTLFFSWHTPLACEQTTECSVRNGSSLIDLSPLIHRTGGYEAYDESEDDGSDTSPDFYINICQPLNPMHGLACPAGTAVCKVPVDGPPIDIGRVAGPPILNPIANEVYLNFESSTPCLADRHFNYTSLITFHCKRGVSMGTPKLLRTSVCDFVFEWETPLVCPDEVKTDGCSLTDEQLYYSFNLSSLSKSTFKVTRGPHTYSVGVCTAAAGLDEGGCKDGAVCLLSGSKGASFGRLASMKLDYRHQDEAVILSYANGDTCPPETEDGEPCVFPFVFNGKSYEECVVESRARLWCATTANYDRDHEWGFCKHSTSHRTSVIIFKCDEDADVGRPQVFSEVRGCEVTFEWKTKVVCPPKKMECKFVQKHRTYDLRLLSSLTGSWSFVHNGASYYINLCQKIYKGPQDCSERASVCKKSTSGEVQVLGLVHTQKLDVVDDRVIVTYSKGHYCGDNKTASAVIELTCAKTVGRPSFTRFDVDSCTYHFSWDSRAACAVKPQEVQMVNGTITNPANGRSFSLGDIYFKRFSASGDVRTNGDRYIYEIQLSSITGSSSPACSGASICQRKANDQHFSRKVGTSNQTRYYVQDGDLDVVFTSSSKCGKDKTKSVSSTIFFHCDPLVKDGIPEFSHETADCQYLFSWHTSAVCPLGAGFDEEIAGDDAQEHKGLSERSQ
Assay: Antagonism of mannose 6-phosphate binding to the CI-M6P receptor (SPR, Biacore)
Settings: mean; SPR at 25° C., sCI-MPR binding to immobilized human β-glucuronidase
pKi: −log10 of the molar value.
RESULT_TYPE: pKi

(1) Cc1ccc(COC2O[C@H](CCP(=O)(O)O)[C@@H](O)[C@H](O)[C@@H]2O)c(C)c1 (some centres unmarked)
(2) O=C[C@@H](O)[C@@H](O)[C@H](O)[C@H](O)COP(=O)(O)O [mannose-6-phosphate, reference compound]
# input Which value of pKi is smaller, the one for 1 or the one for 2 ? Indicate your choice by writing its label.
# output 2
(2: 4.72, 1: 5.10)

====

Test: Determination of bioavailability in the rat
Type: in vivo
Conditions: oral, rats, gavage 10 mg/kg versus intravenously 1 mg/kg, plasma LC-MS
RESULT_TYPE: bioavailability (%)
Return type: number; implicit unit %.

# input Read off the recorded bioavailability for Cc1ccc(COC2O[C@H](CCP(=O)(O)O)[C@@H](O)[C@H](O)[C@@H]2O)c(C)c1 (stereo partly shown)
# output 7.7
